# experimentSummary: Solubility of roxithromycin forms in buffer media and water, excess solid, 37 degrees Celsius, 24 h, HPLC assay
# Assay type: physicochemical
# protocolConditions: 37 °C, aqueous buffer, thermodynamic from solid; phosphate buffer (pH 6.8), 37 degrees Celsius, 24 h
endpointName: solubility at 24 h

-- ask So what does the record say about solubility at 24 h for CC[C@H]1OC(=O)[C@H](C)[C@@H](O[C@H]2C[C@@](C)(OC)[C@@H](O)[C@H](C)O2)[C@H](C)[C@@H](O[C@@H]2O[C@H](C)C[C@H](N(C)C)[C@H]2O)[C@](C)(O)C[C@@H](C)/C(=N\OCOCCOC)[C@H](C)[C@@H](O)[C@]1(C)O [Form-III, roxithromycin] ?
-- reply 208 µg/mL
